System: VgEcR and RXR heterodimeric receptor (pVgRXR) with pIND/LacZ(SPI) in CHO cells (Drosophila melanogaster, UniProt P34021, E282G/G283S/G286V)
Construct: host or cells: CHO cells (ATCC CCL-61), transiently transfected or stably transformed with pVgRXR
Test Protocol: β-Galactosidase gene activation in stably transformed CHO cells
Assay type: cell-based
Test Parameters: ligand 10 μM, average of triplicate samples, no ligand = 200
Readout Type: β-Galactosidase activity (RLU)
Reply with just the number (in RLU).

Q) // query β-Galactosidase activity value for entry CCc1ccc(C(=O)NN(C(=O)c2cc(C)cc(C)c2)C(C)(C)C)cc1 [CE-1, reference compound]
A) 323

Q) Now try COc1cccc(C(=O)NN(C(=O)c2cc(C)cc(C)c2)C(C)(C)C)c1C [Ligand 3] .
A) 681

Q) Now try CCOc1cccc(C(=O)NN(C(=O)c2cc(C)cc(C)c2)C(C)(C)C)c1CC [Ligand 12] .
A) 9830

Q) Now try Cc1cc(C)cc(C(=O)N(NC(=O)c2ccc3c(c2C)OCCO3)C(C)(C)C)c1 [Ligand 2] .
A) 536

Q) Now try CCc1c(OC)cccc1C(=O)NN(C(=O)c1cc(F)cc(F)c1)C(C)(C)C [Ligand 4] .
A) 1963

Q) Now try CC(C)CC[C@@H](O)[C@](C)(O)[C@H]1CC[C@@]2(O)C3=CC(=O)[C@]4(O)C[C@@H](O)[C@@H](O)C[C@]4(C)[C@H]3[C@H](O)C[C@]12C [CE-3, muristerone A, reference compound] .
A) 9830

Q) Now try CCc1c(OC)cccc1C(=O)NN(C(=O)c1cccc(OC)c1)C(C)(C)C [Ligand 1] .
A) 1123

Q) Now try CCc1c(OC)cccc1C(=O)NN(C(=O)c1cc(Cl)cc(Cl)c1)C(C)(C)C [Ligand 13] .
A) 6667

* * *

I'd be grateful if you could share measured pKd for these entries.
System: ecdysteroid receptor complex in Drosophila Kc cell cytosolic extract (Drosophila melanogaster, UniProt P34021)
Construct: The supernatant, containing the cytosolic protein extract; endogenous in cells; host or cells: Drosophila Kc167 cells, cytosolic extract
Test Protocol: Competitive 3H-ponasterone A binding assay, Kc cytosolic ecdysone receptor extract
Test Parameters: Table 3; read-out: Kd for Kc cells
To interpret pKd, take it as minus log10 of a concentration measured in moles per litre.

Q) // query pKd value for entry CCc1c(OC)cccc1C(=O)NN(C(=O)c1cc(Cl)cc(Cl)c1)C(C)(C)C [Ligand 13]
A) 7.62

Q) Now try CCc1ccc(C(=O)NN(C(=O)c2cc(C)cc(C)c2)C(C)(C)C)cc1 [CE-1, reference compound] .
A) 6.72

Q) Now try CC(C)(C)N(NC(=O)c1ccccc1)C(=O)c1ccccc1 [CE-2, 1,2-dibenzoyl-1-tert-butyl-hydrazine, reference compound] .
A) 5.70

Q) Now try CCc1c(OC)cccc1C(=O)NN(C(=O)c1cc(F)cc(F)c1)C(C)(C)C [Ligand 4] .
A) 7.59

Q) Now try CCc1c(OC)cccc1C(=O)NN(C(=O)c1cc(C)cc(C)c1)C(C)(C)C [Ligand 5] .
A) 7.89

Q) Now try CCc1c(OC)cccc1C(=O)NN(C(=O)c1cccc(OC)c1)C(C)(C)C [Ligand 1] .
A) 7.40

Q) Now try CC(C)CC[C@@H](O)[C@](C)(O)[C@H]1CC[C@@]2(O)C3=CC(=O)[C@]4(O)C[C@@H](O)[C@@H](O)C[C@]4(C)[C@H]3[C@H](O)C[C@]12C [CE-3, muristerone A, reference compound] .
A) 8.70

* * *

System: ecdysteroid receptor complex in Drosophila Kc cell cytosolic extract (Drosophila melanogaster, UniProt P34021)
Construct: The supernatant, containing the cytosolic protein extract; endogenous in cells; host or cells: Drosophila Kc167 cells, cytosolic extract
Sequence (P34021 1-878): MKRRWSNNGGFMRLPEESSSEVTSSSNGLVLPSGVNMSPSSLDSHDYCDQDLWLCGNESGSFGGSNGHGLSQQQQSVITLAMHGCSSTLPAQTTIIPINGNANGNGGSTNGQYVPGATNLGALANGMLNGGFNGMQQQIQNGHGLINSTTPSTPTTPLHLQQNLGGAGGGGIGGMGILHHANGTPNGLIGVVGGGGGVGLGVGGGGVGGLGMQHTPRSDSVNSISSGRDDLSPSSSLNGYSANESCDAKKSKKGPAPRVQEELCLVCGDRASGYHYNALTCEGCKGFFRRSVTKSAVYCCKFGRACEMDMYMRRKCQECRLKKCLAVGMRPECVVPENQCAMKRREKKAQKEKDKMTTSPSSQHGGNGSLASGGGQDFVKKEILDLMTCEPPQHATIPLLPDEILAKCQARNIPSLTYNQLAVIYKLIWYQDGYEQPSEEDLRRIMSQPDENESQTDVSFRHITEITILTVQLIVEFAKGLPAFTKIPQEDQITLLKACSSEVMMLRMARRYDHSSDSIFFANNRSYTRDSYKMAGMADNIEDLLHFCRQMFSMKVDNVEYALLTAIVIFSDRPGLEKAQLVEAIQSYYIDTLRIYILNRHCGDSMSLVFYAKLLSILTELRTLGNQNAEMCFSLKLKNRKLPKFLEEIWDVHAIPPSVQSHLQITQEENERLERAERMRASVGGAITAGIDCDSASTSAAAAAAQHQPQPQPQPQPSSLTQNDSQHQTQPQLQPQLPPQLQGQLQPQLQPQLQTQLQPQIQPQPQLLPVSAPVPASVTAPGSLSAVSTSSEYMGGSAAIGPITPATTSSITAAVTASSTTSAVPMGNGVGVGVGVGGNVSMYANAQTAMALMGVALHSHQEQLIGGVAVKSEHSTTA
Sequence (P20153 1-508 partner): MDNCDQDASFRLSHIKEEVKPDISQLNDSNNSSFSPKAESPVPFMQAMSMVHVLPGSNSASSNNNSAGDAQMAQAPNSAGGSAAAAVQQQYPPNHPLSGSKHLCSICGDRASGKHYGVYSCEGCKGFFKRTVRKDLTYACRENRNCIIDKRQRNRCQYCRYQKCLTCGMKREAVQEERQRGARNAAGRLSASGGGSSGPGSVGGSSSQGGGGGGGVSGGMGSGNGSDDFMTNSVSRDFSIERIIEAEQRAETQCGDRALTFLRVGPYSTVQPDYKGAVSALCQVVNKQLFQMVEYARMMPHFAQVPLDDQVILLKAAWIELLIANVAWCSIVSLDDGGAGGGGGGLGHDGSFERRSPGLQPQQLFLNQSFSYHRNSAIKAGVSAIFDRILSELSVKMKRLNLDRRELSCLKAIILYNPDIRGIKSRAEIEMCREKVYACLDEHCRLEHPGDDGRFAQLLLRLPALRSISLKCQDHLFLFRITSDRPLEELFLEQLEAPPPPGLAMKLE
Test Protocol: Competitive 3H-ponasterone A binding assay, Kc cytosolic ecdysone receptor extract
Test Parameters: Table 2; read-out: Kd for Kc cells
I'd be grateful if you could share measured Kd for these entries.
Reply with just the number (in nM).

Q) // query Kd value for entry "CCc1c(OC)cccc1C(=O)NN(C(=O)c1cc(F)cc(F)c1)C(C)(C)C"
A) 47

Q) Now try CC(C)(C)N(NC(=O)c1ccccc1)C(=O)c1ccccc1 [CE-2, 1,2-dibenzoyl-1-tert-butyl-hydrazine, reference compound] .
A) 2000

Q) Now try CCc1ccc(C(=O)NN(C(=O)c2cc(C)cc(C)c2)C(C)(C)C)cc1 [CE-1, reference compound] .
A) 110

* * *

System: VgEcR and RXR heterodimeric receptor (pVgRXR) with pIND/LacZ(SPI) in CHO cells (Drosophila melanogaster, UniProt P34021, E282G/G283S/G286V)
Construct: host or cells: CHO cells (ATCC CCL-61), transiently transfected or stably transformed with pVgRXR
Sequence (P34021 1-878 E282G/G283S/G286V): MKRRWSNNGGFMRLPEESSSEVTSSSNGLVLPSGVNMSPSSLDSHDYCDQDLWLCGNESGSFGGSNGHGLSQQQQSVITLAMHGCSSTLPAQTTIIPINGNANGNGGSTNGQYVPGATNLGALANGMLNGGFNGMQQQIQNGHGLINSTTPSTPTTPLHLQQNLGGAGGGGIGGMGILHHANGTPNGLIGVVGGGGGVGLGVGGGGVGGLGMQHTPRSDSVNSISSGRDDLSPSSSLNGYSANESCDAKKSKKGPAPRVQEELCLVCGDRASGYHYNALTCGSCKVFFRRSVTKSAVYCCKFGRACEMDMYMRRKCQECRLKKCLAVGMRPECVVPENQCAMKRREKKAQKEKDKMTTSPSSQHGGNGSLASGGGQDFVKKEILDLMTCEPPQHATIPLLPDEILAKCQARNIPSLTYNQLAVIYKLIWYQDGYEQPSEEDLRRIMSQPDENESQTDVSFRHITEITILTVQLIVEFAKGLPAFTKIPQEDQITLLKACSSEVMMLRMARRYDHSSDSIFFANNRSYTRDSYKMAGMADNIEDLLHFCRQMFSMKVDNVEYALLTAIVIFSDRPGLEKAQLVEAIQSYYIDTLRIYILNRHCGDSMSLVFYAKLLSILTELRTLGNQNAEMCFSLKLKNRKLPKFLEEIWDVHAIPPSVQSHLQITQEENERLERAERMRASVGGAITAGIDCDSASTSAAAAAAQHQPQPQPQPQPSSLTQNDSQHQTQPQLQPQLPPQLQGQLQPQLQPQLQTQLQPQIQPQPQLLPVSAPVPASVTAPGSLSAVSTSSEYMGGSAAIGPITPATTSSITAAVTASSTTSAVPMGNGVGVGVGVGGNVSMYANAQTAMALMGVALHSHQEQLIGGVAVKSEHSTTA
Sequence (P19793 1-462 partner): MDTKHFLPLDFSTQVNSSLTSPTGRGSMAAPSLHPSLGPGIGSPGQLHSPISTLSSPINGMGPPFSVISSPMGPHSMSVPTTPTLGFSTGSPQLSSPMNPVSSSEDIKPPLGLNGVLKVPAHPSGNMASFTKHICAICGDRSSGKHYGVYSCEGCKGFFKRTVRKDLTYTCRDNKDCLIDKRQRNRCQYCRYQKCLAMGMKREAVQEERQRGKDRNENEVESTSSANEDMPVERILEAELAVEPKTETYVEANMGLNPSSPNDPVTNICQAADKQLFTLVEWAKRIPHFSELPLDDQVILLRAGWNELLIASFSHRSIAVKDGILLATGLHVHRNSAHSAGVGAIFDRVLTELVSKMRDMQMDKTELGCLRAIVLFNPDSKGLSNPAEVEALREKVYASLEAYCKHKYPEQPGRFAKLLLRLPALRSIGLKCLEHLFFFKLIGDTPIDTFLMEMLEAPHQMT
Test Protocol: β-Galactosidase gene activation in stably transformed CHO cells
Type: cell-based
Test Parameters: ligand 10 μM, β-galactosidase
Readout Type: Induction Ratio (RLU in presence and absence of the ligand)

Q) // query Induction Ratio (RLU in presence and absence of the ligand) value for entry CC(C)CC[C@@H](O)[C@](C)(O)[C@H]1CC[C@@]2(O)C3=CC(=O)[C@@H]4C[C@@H](O)[C@@H](O)C[C@]4(C)[C@H]3CC[C@]12C [CE-4, ponasterone A, reference compound]
A) 52

Q) Now try "CCc1c(OC)cccc1C(=O)NN(C(=O)c1cc(F)cc(F)c1)C(C)(C)C" .
A) 10

Q) Now try "Cc1cc(C)cc(C(=O)N(NC(=O)c2ccc3c(c2C)OCCO3)C(C)(C)C)c1" .
A) 3

Q) Now try CCc1ccc(C(=O)NN(C(=O)c2cc(C)cc(C)c2)C(C)(C)C)cc1 [CE-1, reference compound] .
A) 2

The origin of these recorded values is patent US20010044151A1.
